- assay.name: Acute toxicity on mice (method of Lichtfield and Wilcoxon), LD50
- experimental.conditions: mouse, in vivo, po, 14 days observation
Reported LD50 at 336 h values follow for various compounds

Example entries and their recorded answers appear below.
CCCC1CCCCC(=C\c2ccc(Cl)cc2)/C1=N/OCC(O)CN1CCCC1 (racemic)
> 1000 mg/kg
CCCC1CCCCC(=C\c2ccc(Cl)cc2)/C1=N/OCCN(CC)CC (racemic)
> 1000 mg/kg
CCN(CC)CCO/N=C1/C(=C/c2ccc(Cl)c(Cl)c2)CCCC1C (racemic)
> 1000 mg/kg

// LD50 at 336 h lookup, key: CCCCCCC1CCCC(=C\c2ccccc2OC)/C1=N/OCCN(CC)CC (racemic)
~1000 mg/kg

// LD50 at 336 h lookup, key: CCCCCCCC1CCCC(=C\c2ccc(F)cc2)/C1=N/OCCN(C)C (racemic)
> 1000 mg/kg

// LD50 at 336 h lookup, key: CCCCCC1CCCC(=C\c2ccc(F)cc2)/C1=N/OCCN1CCN(Cc2ccccc2)CC1 (racemic)
> 1000 mg/kg

// LD50 at 336 h lookup, key: CC(CO/N=C1/C(=C/c2ccc(F)cc2)CCCC1C)CN(C)C (racemic)
600 mg/kg

Data provenance is patent US5523303A.
